Kindly state viability at 10 µM for each of the entries shown.
- Test system: A549
- Experiment: MTT test, A549
- Assay type: cell-based
- Test parameters: Homo sapiens, 10^−5 M, 72 hours, control = 100%, mean ± SEM, read-out: average optical density (MTT), percentage relative to control
- Protocol: The influence of the compounds of formulae (I) and (Ia) on non-clonogenic cells was evaluated with the aid of the MTT calorimetric test. The principle of the MTT test is based on the mitochondrial reduction, by the metabolically active live cells, of the yellow-colored product MTT (3-(4,5-dimethylthiazol-2-yl)-2,5-diphenyltetrazolium bromide) to a blue-colored product, formazan. […] This amount of formazan is measured by spectrophotometry. […]
Answer with a number only, understood to be in %.

viability at 10 µM reading for COc1ccc(-c2cc3c(OC)cc(OC)cc3[nH]c2=O)cc1 : 113

viability at 10 µM reading for COc1ccc(-c2cc3c(OC)cc(OC)cc3nc2S)cc1 : 94.2

viability at 10 µM reading for Oc1ccc(-c2cc3c(O)cc(O)cc3nc2O)cc1 : 106

viability at 10 µM reading for COc1cccc2cc(-c3ccccc3)c(O)nc12 : 49.6
